Parameter Kd: see the listing below.
Target: T1, CHO expressed human interferon gamma (hIFNγ) (human, UniProt P01579 24-161, glycosylated (highly glycosylated form purified))
T1 chain: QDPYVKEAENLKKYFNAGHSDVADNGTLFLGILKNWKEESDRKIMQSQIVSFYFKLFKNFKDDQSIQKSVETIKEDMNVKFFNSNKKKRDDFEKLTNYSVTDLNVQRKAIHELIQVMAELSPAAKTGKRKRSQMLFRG
Test: BIAcore
Measured Quantity: Kd (nM)

Fab phage clone "IFN-A" (Fab, V domains shown) VH: EVQLQQWGAGLLKPSETLSLTCAVYGGSFSGYYWSWIRQPPGKGLEWIGEINHSGSTNYNPSLKSRVTISVDTSKNQFSLKLSSVTAADTAVYYCARGWPTYVWGSYRPKGYFDYWGQGTLVTVSS VL: EIVLTQSPLSLPVTPGEPASISCRSSQSLLHTNEYNYLDWYLQKPGQSPQLLIYLGSNRAPGVPDRFSGSGSGTDFTLRISRVEADDVGVYYCMQALQTPRTFGQGTKLEIKR : 420
IFN-A IgG (antibody, V domains shown) VH: EVQLQQWGAGLLKPSETLSLTCAVYGGSFSGYYWSWIRQPPGKGLEWIGEINHSGSTNYNPSLKSRVTISVDTSKNQFSLKLSSVTAADTAVYYCARGWPTYVWGSYRPKGYFDYWGQGTLVTVSS VL: EIVLTQSPLSLPVTPGEPASISCRSSQSLLHTNEYNYLDWYLQKPGQSPQLLIYLGSNRAPGVPDRFSGSGSGTDFTLRISRVEADDVGVYYCMQALQTPRTFGQGTKLEIKR : 18
GP-A IgG (antibody, V domains shown) VH: QVQLVETGGGVVQPGRSLRLSCAASGFTFSSYAMHWVRQAPGKGLEWVAVISYDGSNKYYADSVKGRFTISRDNSKNTLYLQMNSLRAEDTAVYYCASDLVLTMTSRRAAFDIWGQGTMVTVSS VL: SYELTQPPSVSVSPGQTARITCSGDVLARKYARWFQQKPGQAPVLVIYKDRERPSGIPERFSGSTSGTTVTLTISGAQVEDEADYYCYSAADNRGVFGGGTKLTVLR : 8
